Some compounds, each annotated with its measured IC50.
biological target: B-Raf kinase (SEQ ID NO: 1) (Homo sapiens, UniProt P15056); construct: GST (N); purchased Sigma; test: Biochemical Assay for B-Raf (coupled pyruvate kinase/lactate dehydrogenase assay); details: 1 mM ATP; read-out: BRAF (inhibition of biochemical activity, IC50)
Sequence (P15056 416-766): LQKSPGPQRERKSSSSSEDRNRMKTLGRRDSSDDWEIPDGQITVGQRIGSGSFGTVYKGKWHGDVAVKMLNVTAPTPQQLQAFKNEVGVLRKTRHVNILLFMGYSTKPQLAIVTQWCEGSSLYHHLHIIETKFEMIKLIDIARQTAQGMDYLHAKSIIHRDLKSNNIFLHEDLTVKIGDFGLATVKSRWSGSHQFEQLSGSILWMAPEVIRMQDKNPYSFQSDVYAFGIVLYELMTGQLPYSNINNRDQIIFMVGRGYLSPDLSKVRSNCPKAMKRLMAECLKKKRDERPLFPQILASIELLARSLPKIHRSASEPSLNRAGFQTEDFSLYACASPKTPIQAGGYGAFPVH

COMPOUND	TEST SYSTEM	RESULT
Cc1cc(-c2cc(NC(=O)c3cncc(C(C)(F)F)c3)ccc2C)cc(-c2ccnc(NC(=O)C3CC3)c2)n1	B-Raf kinase (SEQ ID NO: 1) (Homo sapiens, UniProt P15056)	< 100 nM
Cc1ccc(NC(=O)c2cc(C3CC3)cnn2)cc1-c1cc(OCCO)nc(-c2ccnc(NC(=O)C3CC3)c2)c1	B-Raf kinase (SEQ ID NO: 1) (Homo sapiens, UniProt P15056)	< 100 nM
Cc1ccc(NC(=O)c2cncc(C(C)(F)F)c2)cc1-c1ccnc(-c2ccnc(NC(=O)C3CC3)c2)c1	B-Raf kinase (SEQ ID NO: 1) (Homo sapiens, UniProt P15056)	< 100 nM
CC(=O)Nc1cc(-c2cc(-c3cc(NC(=O)c4ccc(C(F)(F)F)nc4)ccc3C)cn(C)c2=O)ccn1	B-Raf kinase (SEQ ID NO: 1) (Homo sapiens, UniProt P15056)	100 to 500 nM
Cc1ccc(NC(=O)c2cc(C3CC3)cnn2)cc1-c1cc(N[C@H](C)CO)nc(-c2cn[nH]c2)c1	B-Raf kinase (SEQ ID NO: 1) (Homo sapiens, UniProt P15056)	< 100 nM

What measured IC50 goes with Cc1ccc(NC(=O)c2cc(C(F)(F)F)cnn2)cc1-c1ccnc(-c2ccnc(NC(=O)C3(C)CC3)c2)c1 ?
100 to 500 nM

What measured IC50 goes with Cc1ccc(NC(=O)c2cc(C(F)(F)F)cnn2)cc1-c1ccnc(-c2ccnc(NC(=O)C3CN(C)CC3(F)F)c2)c1 (stereo not drawn) ?
100 to 500 nM

What measured IC50 goes with Cc1ccc(NC(=O)c2ccc(C(F)(F)F)nn2)cc1-c1cncc(-c2cc(NC(=O)C3CC3)ncn2)c1 ?
< 100 nM

What measured IC50 goes with Cc1ccc(NC(=O)c2cc(C(F)(F)F)cnn2)cc1-c1ccnc(-c2ccnc(NC=O)c2)c1 ?
< 100 nM

What measured IC50 goes with Cc1ccc(NC(=O)c2cc(C(F)(F)F)cnn2)cc1-c1ccnc(-c2ccnc(NC(=O)CC3(C)CC3)c2)c1 ?
100 to 500 nM

What measured IC50 goes with Cc1ccc(NC(=O)c2ccc(C(F)F)nn2)cc1-c1ccnc(-c2ccnc(NC(=O)C3CC3)c2)c1 ?
500 to 1000 nM

What measured IC50 goes with Cc1ccc(NC(=O)c2cc(C(C)(F)F)cnn2)cc1-c1ccnc(-c2cnsc2)c1 ?
100 to 500 nM

What measured IC50 goes with Cc1ccc(NC(=O)c2cc(C(F)(F)F)cnn2)cc1-c1cc(N[C@H](C)CO)nc(-c2cn[nH]c2C)c1 ?
< 100 nM

What measured IC50 goes with Cc1ccc(NC(=O)c2cc(C(C)(F)F)cnn2)cc1-c1cncc(-c2cc(NC(=O)C3CC3)ncn2)c1 ?
< 100 nM

What measured IC50 goes with CNCC(=O)Nc1cc(-c2cc(-c3cc(NC(=O)c4cc(C5CC5)cnn4)ccc3C)ccn2)ccn1 ?
< 100 nM

What measured IC50 goes with Cc1ccc(NC(=O)c2cc(C(F)(F)F)cnn2)cc1-c1ccnc(-c2cscn2)c1 ?
500 to 1000 nM

What measured IC50 goes with COCC(=O)Nc1cc(-c2nccc(-c3cc(NC(=O)c4cc(C(F)(F)F)cnn4)ccc3C)n2)ccn1 ?
< 100 nM

What measured IC50 goes with COC(=O)Nc1cc(-c2cccc(-c3cc(NC(=O)c4ccc(C(F)(F)F)nc4)cnc3C)c2)ccn1 ?
100 to 500 nM

What measured IC50 goes with Cc1ccc(NC(=O)c2cc(C(F)(F)F)cnn2)cc1-c1ccnc(-c2ccnc(NC(=O)CN(C)C)c2)c1 ?
< 100 nM

What measured IC50 goes with CCNc1cc(-c2cc(-c3cc(NC(=O)c4cc(C(F)(F)F)cnn4)ccc3C)ccn2)ccn1 ?
100 to 500 nM

What measured IC50 goes with Cc1ccc(NC(=O)c2cc(C3CC3)cnn2)cc1-c1nc(NCCO)cc(-c2ccnc(NC(=O)C3CC3)c2)n1 ?
< 100 nM

What measured IC50 goes with Cc1ccc(NC(=O)c2cc(C(F)(F)F)cnn2)cc1-c1cc(N[C@H](C)CO)nc(-c2c[nH]nc2N)c1 ?
100 to 500 nM

What measured IC50 goes with Cc1ccc(NC(=O)c2cc(C(F)(F)F)cnn2)cc1-c1ccnc(-c2ccnc(NC(=O)C3(C)CCC3)c2)c1 ?
500 to 1000 nM

What measured IC50 goes with Cc1ccc(NC(=O)c2cc3c(nn2)CCC3)cc1-c1ccnc(-c2ccnc(NC(=O)C3CC3)c2)c1 ?
< 100 nM
